- TEST: in vivo
- RUN CONDITIONS: Beagle, dog, iv, 1 mg/kg

- SMILES INPUT: "C=CC(=O)N1CCC([C@@H]2CCNc3c(C(N)=O)c(-c4cc(OC)c(C)c(OC)c4)nn32)CC1"
  clearance at 24 h [mL/min/kg]: 6.89

* * *

- TEST: in vivo
- RUN CONDITIONS: Beagle, dog, po

- SMILES INPUT: "C=CC(=O)N1CCC([C@@H]2CCNc3c(C(N)=O)c(-c4cc(OC)c(C)c(OC)c4)nn32)CC1"
  MEASUREMENT UNITS: "ng/mL"
  Cmax at 24 h: 1250
